solubility thermodynamic at 24 h values, listed per item
Method Notes: physchem
Format: physicochemical
Measurement Context: phosphate-buffered saline (PBS), pH 7.4, thermodynamic solubility (pH = 7.4), PBS, 37 °C, 24 h, mean of two
Property Measured: solubility thermodynamic at 24 h (µM)

Molecule: Cc1[nH]c(C(=O)Nc2nc3c(N4CCOC[C@H]4C)cc(C(=O)O)cc3s2)c(Cl)c1Cl [7c]
Meas Value: 10.1

Molecule: Cc1[nH]c(C(=O)Nc2nc3c(N4CCOC[C@@H]4C)cc(C(=O)O)cc3s2)c(Cl)c1Cl [7d]
Meas Value: 5.8

Molecule: COCC1CCCN1c1cc(C(=O)O)cc2sc(NC(=O)c3[nH]c(C)c(Cl)c3Cl)nc12 (stereo not shown) [7n]
Meas Value: 11.2

Molecule: Cc1[nH]c(C(=O)Nc2nc3c(N4CCOC(C)C4)cc(C(=O)O)cc3s2)c(Cl)c1Cl (stereo not shown) [7e]
Meas Value: 80.4

---

System: 100 A. baumannii strains (50 MDR, 50 non-MDR)
Method Notes: MIC broth microdilution at IHMA Europe, panel of 100 strains
Assay type: cell-based
Measurement Context: Acinetobacter baumannii, A. baumannii IHMA 2216586, Taiwan 2020, MDR; read-out: MIC

Mol: C[C@@H](O)[C@H]1C(=O)N2C(C(=O)O)=C(S[C@@H]3CN[C@H](C(=O)N(C)C)C3)[C@H](C)[C@H]12
Value Qualifier: >
MIC, µg/mL: 16

Mol: Cc1[nH]c(C(=O)Nc2nc3c(N4[C@@H]5CC[C@H]4COC5)cc(C(=O)O)cc3s2)c(Cl)c1Cl
Value Qualifier: =
MIC, µg/mL: 2

Mol: C[C@@H](O)[C@H]1C(=O)N2C(C(=O)O)=C(SCCNC=N)C[C@H]12
Value Qualifier: >
MIC, µg/mL: 16

Mol: COc1c(N2C[C@@H]3CCCN[C@@H]3C2)c(F)cc2c(=O)c(C(=O)O)cn(C3CC3)c12
Value Qualifier: =
MIC, µg/mL: 8

---

Tested on: 100 A. baumannii strains (50 MDR, 50 non-MDR)
Method Notes: MIC broth microdilution at IHMA Europe, panel of 100 strains
Format: cell-based
Measurement Context: Acinetobacter baumannii, A. baumannii IHMA 2212575, Hungary 2020, Non-MDR; read-out: MIC

Mol: COc1c(N2C[C@@H]3CCCN[C@@H]3C2)c(F)cc2c(=O)c(C(=O)O)cn(C3CC3)c12
Tgt: 100 A. baumannii strains (50 MDR, 50 non-MDR)
Readout Unit: µg/mL
Value Qualifier: ≤
MIC: 0.5

Mol: Cc1[nH]c(C(=O)Nc2nc3c(N4[C@@H]5CC[C@H]4COC5)cc(C(=O)O)cc3s2)c(Cl)c1Cl
Tgt: 100 A. baumannii strains (50 MDR, 50 non-MDR)
Readout Unit: µg/mL
Value Qualifier: =
MIC: 4

Mol: C[C@@H](O)[C@H]1C(=O)N2C(C(=O)O)=C(S[C@@H]3CN[C@H](C(=O)N(C)C)C3)[C@H](C)[C@H]12
Tgt: 100 A. baumannii strains (50 MDR, 50 non-MDR)
Readout Unit: µg/mL
Value Qualifier: =
MIC: 0.5

Mol: CN(C)c1cc(NC(=O)CNC(C)(C)C)c(O)c2c1C[C@H]1C[C@H]3[C@H](N(C)C)C(O)=C(C(N)=O)C(=O)[C@@]3(O)C(O)=C1C2=O
Tgt: 100 A. baumannii strains (50 MDR, 50 non-MDR)
Readout Unit: µg/mL
Value Qualifier: =
MIC: 0.5

Mol: C[C@@H](O)[C@H]1C(=O)N2C(C(=O)O)=C(SCCNC=N)C[C@H]12
Tgt: 100 A. baumannii strains (50 MDR, 50 non-MDR)
Readout Unit: µg/mL
Value Qualifier: ≤
MIC: 0.25

This collection of values is drawn from paper PMC10041525.
